Tested on: SF-539 CNS
Experiment: NCI-60 one-dose screen, 48 h (100 = growth as untreated, 0 = no growth, -100 = all killed)
Conditions: 10 µM unless noted
Method: Cells are grown in 96 well plates and exposed to the test compound for 48 hours. Compounds are tested at a single concentration, which is 10^-5 M for most compounds. The reported endpoint is percent growth (GI% or GIPRCNT), where numbers from 0 - 100% represent growth inhibition, and numbers from -100% - 0 represent cell death. For example, a value of 40 represents 60% growth inhibition. A value of 0 means no net growth occurred over the course of the experiment. […]
About 83,000 compounds went through this panel and 20% of them were active in at least one assay; those are over-represented in the sample as a whole.
Each item that follows carries a reported growth.
Note: unit % is implicit; provide only the numeric part.

compound=CCN(CC)CCOc1ccc(C(=C(C)Cc2ccc(OC)cc2)c2ccc(OCCN(CC)CC)cc2)cc1 observation_type=growth numeric_readout=-45.9

Q: Given the entry CN(C)CCCOc1ccc(C(=C(c2ccccc2)C2CCCC2)c2ccc(OCCCN(C)C)cc2)cc1 , report its measured growth.
A: -89.4

Q: Given the entry C#C[C@]1(O)CC[C@H]2[C@@H]3CC=C4c5sc(N6CCN(C)CC6)nc5CC[C@]4(C)[C@H]3CC[C@@]21C , report its measured growth.
A: 7.74

Q: Given the entry O=C(CCCCCCNC(=O)C(O)(O)C(F)(F)F)Nc1nc2ccccc2s1 , report its measured growth.
A: 10.5

Q: Given the entry O=S(=O)(NCCCNc1nccc(-c2[nH]c(-c3ccccc3)nc2-c2ccc(F)c(O)c2)n1)c1ccc(C(F)(F)F)cc1 , report its measured growth.
A: 31.1

Q: Given the entry Nn1c(=O)n(-c2cccc(C(F)(F)F)c2)c(=O)c2cc(-c3ccc(F)cc3F)ccc21 , report its measured growth.
A: 19.4

Q: Given the entry COc1ccc(C2c3[nH]c4ccc(Cl)cc4c3CCN2c2oc(CO)nc2C#N)cc1 (stereo not drawn) , report its measured growth.
A: 40.3
